Where do these numbers come from? They come from a melting point compilation (Tetko et al.; mined from patent text by program, amines drawn as free bases though some values may be those of a salt).

measured endpoint: melting point

Field: example entries. Status: answers known.
[
  {
    "molecule": "COC(=O)[C@H](CO)NC(=O)c1ncn2c1CN(C)C(=O)c1sccc1-2",
    "melting point": "158 to 160 °C"
  },
  {
    "molecule": "CCc1nc2c(C)cc(C)nc2n1Cc1ccc(-c2ccccc2-c2c(O)c(=O)c2=O)cc1",
    "melting point": "245 to 247 °C"
  },
  {
    "molecule": "CCOCCn1c(C2CCN(C)C(c3ccc(C(C)(C)C)cc3)C2)nc2ccccc21 (centres undefined)",
    "melting point": "51 to 53 °C"
  },
  {
    "molecule": "Cc1c(OCc2ccc(F)cc2F)cc(C)n(C2CCCCC2)c1=O",
    "melting point": "118 to 120 °C"
  }
]

Prompt: Can you look up the measured melting point of "Cc1cc2c(-c3cccc(/C=C/C(=O)O)c3)c(CC(=O)Nc3ccc(Cl)cc3C(F)(F)F)c(=O)oc2cc1Cl" for me?
Completion: 191 to 194 °C

Prompt: Can you check "CCOC(=O)C(C)(C)Sc1ccc(NCCn2c(C)nc3ccccc3c2=O)cc1" next?
Completion: 226 to 228 °C

Prompt: Follow-up entry: "CCOC(=O)c1c(-c2ccccc2Cl)c2cc(C(C)C)ccc2[nH]c1=O"
Completion: 173 to 174 °C

Prompt: Input "CC(=O)N(Cc1ccc(C[C@@H](C(=O)O)n2cccc2)cc1)Cc1nc(-c2ccccc2)oc1C"
Completion: 97 to 100 °C

Prompt: Proceed to "COC(=O)c1c(OC)cc(N(C)C)nc1C"
Completion: 65 to 66 °C
